STUDY TARGET: HDAC7 (Homo sapiens)
Sequence (Q8WUI4 1-952): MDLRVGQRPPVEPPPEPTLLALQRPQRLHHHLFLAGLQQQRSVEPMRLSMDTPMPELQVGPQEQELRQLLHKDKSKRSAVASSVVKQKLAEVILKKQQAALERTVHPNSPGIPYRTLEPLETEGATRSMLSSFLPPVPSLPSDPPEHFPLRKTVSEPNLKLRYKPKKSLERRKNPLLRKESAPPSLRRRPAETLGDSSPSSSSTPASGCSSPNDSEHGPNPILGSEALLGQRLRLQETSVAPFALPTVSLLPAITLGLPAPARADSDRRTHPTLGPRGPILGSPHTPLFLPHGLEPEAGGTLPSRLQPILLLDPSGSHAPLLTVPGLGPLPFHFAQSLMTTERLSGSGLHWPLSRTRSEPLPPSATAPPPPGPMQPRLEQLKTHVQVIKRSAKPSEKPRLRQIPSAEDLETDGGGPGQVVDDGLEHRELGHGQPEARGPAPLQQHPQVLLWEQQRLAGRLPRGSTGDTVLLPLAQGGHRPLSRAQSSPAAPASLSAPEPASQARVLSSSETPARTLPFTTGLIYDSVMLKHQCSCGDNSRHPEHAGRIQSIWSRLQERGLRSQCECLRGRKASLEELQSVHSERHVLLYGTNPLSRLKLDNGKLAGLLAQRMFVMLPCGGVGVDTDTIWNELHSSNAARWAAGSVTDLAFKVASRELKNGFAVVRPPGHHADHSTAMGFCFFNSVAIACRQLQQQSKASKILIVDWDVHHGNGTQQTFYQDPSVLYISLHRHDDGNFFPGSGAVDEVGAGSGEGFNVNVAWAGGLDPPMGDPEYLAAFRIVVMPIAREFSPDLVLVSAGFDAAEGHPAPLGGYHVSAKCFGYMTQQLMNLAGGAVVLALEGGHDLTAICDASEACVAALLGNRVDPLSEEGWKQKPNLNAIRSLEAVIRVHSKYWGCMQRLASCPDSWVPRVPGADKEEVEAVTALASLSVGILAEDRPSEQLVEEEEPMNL
ASSAY INFO: HDAC enzyme activity test, HDAC7
Assay type: biochemical
EXPERIMENTAL ENDPOINT: IC50
State the value with its unit after it.

Take a look at these entries with their results.
{"COMPOUND": "CN1CCN(CC2CCc3c(c4cc(F)ccc4n3Cc3ccc(C(=O)NO)cc3)C2=O)CC1 (stereo not drawn) [Compound 142]", "IC50": "4.53 µM"}
{"COMPOUND": "O=C(NO)c1ccc(Cn2c3c(c4ccccc42)C(=O)N(CCN2CCOCC2)CC3)cc1 [Compound 249]", "IC50": "3.42 µM"}

Turning now to a further record.
HDAC7 (Homo sapiens) assay, compound O=C(NO)c1ccc(Cn2c3c(c4ccccc42)C(=O)C(CN2CCOCC2)CC3)cc1 (stereo not drawn) [Compound 87] , recorded IC50 = 3.28 µM

---

STUDY TARGET: HDAC8 (Homo sapiens)
Sequence (Q9BY41 whole entry, species assumed): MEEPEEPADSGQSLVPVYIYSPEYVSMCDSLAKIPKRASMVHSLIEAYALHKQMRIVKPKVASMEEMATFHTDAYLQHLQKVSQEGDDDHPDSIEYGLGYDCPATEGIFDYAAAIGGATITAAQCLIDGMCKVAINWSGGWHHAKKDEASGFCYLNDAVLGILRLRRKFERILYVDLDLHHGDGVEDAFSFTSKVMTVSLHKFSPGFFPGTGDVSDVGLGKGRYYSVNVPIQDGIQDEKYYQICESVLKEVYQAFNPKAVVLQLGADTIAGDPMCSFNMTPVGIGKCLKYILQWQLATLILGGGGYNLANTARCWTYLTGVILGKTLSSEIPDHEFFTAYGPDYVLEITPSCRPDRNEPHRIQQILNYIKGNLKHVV
EXPERIMENTAL ENDPOINT: pIC50
One number for each entry, as −log10 of the molar value.

Report pIC50 for each item below.
1. CN1CCN(CC2CCc3c(c4cc(F)ccc4n3Cc3ccc(C(=O)NO)cc3)C2=O)CC1 (stereo not drawn) [Compound 142]
2. O=C(NO)c1ccc(Cn2c3c(c4ccccc42)C(=O)N(CCN2CCOCC2)CC3)cc1 [Compound 249]
3. CC1(C)CC(=O)c2c(n(CCCCCC(=O)NO)c3ccc(F)cc23)C1 [Compound 55]

A:
1: 5.97; 2: 6.66; 3: 6.30
